# experimental target: porcine TSH receptor (porcine thyroid membranes) (Sus scrofa, UniProt Q8SPP9)
# Construct: Frozen porcine thyroid glands were purchased; tissue Pel-Freez Biologicals
# Sequence (Q8SPP9 22-764): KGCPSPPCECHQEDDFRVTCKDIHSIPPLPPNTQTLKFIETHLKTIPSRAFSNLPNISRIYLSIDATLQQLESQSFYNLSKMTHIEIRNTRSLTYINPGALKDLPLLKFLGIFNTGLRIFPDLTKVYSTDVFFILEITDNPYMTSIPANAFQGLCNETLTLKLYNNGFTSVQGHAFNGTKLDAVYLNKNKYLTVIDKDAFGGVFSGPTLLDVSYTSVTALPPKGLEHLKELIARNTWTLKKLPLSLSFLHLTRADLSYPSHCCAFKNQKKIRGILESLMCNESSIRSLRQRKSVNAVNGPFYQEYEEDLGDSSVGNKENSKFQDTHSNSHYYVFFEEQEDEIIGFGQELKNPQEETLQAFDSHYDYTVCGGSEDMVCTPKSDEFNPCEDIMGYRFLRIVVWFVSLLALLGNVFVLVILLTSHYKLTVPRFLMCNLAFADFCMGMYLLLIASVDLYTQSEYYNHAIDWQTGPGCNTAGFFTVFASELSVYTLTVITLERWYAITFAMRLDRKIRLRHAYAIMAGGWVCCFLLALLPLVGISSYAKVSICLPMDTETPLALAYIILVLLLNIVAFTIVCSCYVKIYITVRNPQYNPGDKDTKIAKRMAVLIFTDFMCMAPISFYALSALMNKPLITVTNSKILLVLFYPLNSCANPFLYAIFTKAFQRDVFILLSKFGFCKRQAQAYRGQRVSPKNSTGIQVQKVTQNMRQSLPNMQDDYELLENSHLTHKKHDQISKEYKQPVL
# protocol summary: Porcine thyroid membrane TSH radio-receptor assay (inhibition of 125I-bTSH binding)
# conditions: concentration inhibiting 125I-bTSH binding to porcine thyroid membrane by 50%; mean ± se of at least 3 assays
Residues, ends and D or L forms follow the SMILES beside them.
observation type: pEC50
Quick note: pEC50 values are minus log10 of concentrations in mol/L.

For this compound ( CC[C@H](C)[C@H](N)C(=O)N[C@@H](CCC(=O)O)C(=O)N[C@@H](CCCNC(=N)N)C(=O)N[C@@H](CCCNC(=N)N)C(=O)N[C@@H](CCC(=O)O)C(=O)N[C@@H](CS)C(=O)N[C@@H](C)C(=O)N[C@@H](Cc1ccc(O)cc1)C(=O)N[C@@H](CS)C(=O)N[C@@H](CC(C)C)C(=O)N[C@H](C(=O)N[C@H](C(=O)N[C@@H](CC(N)=O)C(=O)N[C@H](C(=O)N[C@H](C(N)=O)[C@@H](C)O)[C@@H](C)O)[C@@H](C)CC)[C@@H](C)O [β11-25] (H-IERRECAYCLTINTT-NH2) ), measured pEC50 is 3.73
